target: SmSOD (Streptococcus mutans serotype c, UniProt P09738); construct: His-tail; made in house; host or cells: Escherichia coli BL21(DE3), vector vSmSOD (pET-22b(+)-derived); test: SOD activity assay (inhibition of cytochrome c reduction, xanthine/xanthine oxidase method) with SmSOD; format: biochemical; details: 50 µM compound; ALS-31 derivatives, Table 2; read-out: Residual SOD Activity (%) in the Presence of [Compound]
Sequence (P09738 2-203): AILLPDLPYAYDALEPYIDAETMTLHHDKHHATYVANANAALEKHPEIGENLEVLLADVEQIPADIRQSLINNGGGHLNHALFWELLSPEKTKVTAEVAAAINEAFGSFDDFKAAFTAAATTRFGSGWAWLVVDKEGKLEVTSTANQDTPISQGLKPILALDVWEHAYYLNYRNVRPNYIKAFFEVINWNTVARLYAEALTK
parameter measured: remaining activity at 50 µM (%)
Could you give me the number in %? Just the number is fine.

Query: Give a short answer stating reported remaining activity at 50 µM for CC(NC(=O)COc1ccc2c3c(c(=O)oc2c1)CCCC3)C(=O)NCC(=O)NCC(=O)O (centres unmarked) .
Reply: 93.4

Query: Determine its reported remaining activity at 50 µM: CSCCC(NC(=O)COc1ccc2c3c(c(=O)oc2c1)CCC3)C(=O)O (centres unmarked)
Reply: 104

Query: Read off the recorded remaining activity at 50 µM for O=C(O)CCNC(=O)COc1ccc2c3c(c(=O)oc2c1)CCCC3
Reply: 95.4

Query: Fill in reported remaining activity at 50 µM for this entry: CCCC(NC(=O)COc1ccc2c3c(c(=O)oc2c1)CCCC3)C(=O)NCCCC(=O)O (centres unmarked)
Reply: 65.3

Query: In one line, give reported remaining activity at 50 µM of the entry CCCC(NC(=O)COc1ccc2c3c(c(=O)oc2c1)CCCC3)C(=O)O (centres unmarked) .
Reply: 83.7

###

target: SmSOD (Streptococcus mutans serotype c, UniProt P09738); construct: His-tail; made in house; host or cells: Escherichia coli BL21(DE3), vector vSmSOD (pET-22b(+)-derived); assay: SOD activity assay (inhibition of cytochrome c reduction, xanthine/xanthine oxidase method) with SmSOD; format: biochemical; conditions: screening concentrations or inhibition profile up to 300 µM
parameter measured: effect on SmSOD activity (in words)

CSCCC(NC(=O)COc1ccc2c3c(c(=O)oc2c1)CCCC3)C(=O)O (stereo not shown): dose-dependent reduction
CSCCC(NC(=O)CCNC(=O)COc1cc2oc(=O)c3c(c2cc1C)CCCC3)C(=O)O (stereo not shown): dose-dependent reduction
O=C(O)CCCNC(=O)COc1ccc2c3c(c(=O)oc2c1)CCCC3: dose-dependent reduction
CCCC(NC(=O)COc1ccc2c3c(c(=O)oc2c1)CCCC3)C(=O)NCCCC(=O)O (stereo not shown): dose-dependent reduction

###

target: SmSOD (Streptococcus mutans serotype c, UniProt P09738); construct: His-tail; made in house; host or cells: Escherichia coli BL21(DE3), vector vSmSOD (pET-22b(+)-derived); assay: SOD activity assay (inhibition of cytochrome c reduction, xanthine/xanthine oxidase method) with SmSOD; type: biochemical; details: 50 µM compound; ALS-31 derivatives, Table 2; read-out: Residual SOD Activity (%) in the Presence of [Compound]
parameter measured: remaining activity at 50 µM (%)
Write it as a number; the unit % goes unstated.

Query: Entry O=C(O)CCCNC(=O)COc1ccc2c3c(c(=O)oc2c1)CCCC3 needs its remaining activity at 50 µM filled in; supply it.
Reply: 75.1

Query: Return remaining activity at 50 µM (reported value) for this molecule: O=C(O)CNC(=O)CNC(=O)COc1ccc2c3c(c(=O)oc2c1)CCCC3
Reply: 75.6

Query: Consider the molecule O=C(O)CCC(NC(=O)COc1ccc2c3c(c(=O)oc2c1)CCC3)C(=O)O (stereo not shown) . State its measured remaining activity at 50 µM.
Reply: 89.8

Query: Identify remaining activity at 50 µM associated with the molecule CSCCC(NC(=O)COc1ccc2c3c(c(=O)oc2c1)CCCC3)C(=O)O (stereo not shown)
Reply: 75

Query: State its remaining activity at 50 µM for this molecule: CSCCC(NC(=O)CCNC(=O)COc1cc2oc(=O)c3c(c2cc1C)CCCC3)C(=O)O (stereo not shown)
Reply: 69.2

Query: State its remaining activity at 50 µM for this molecule: CSCCC(NC(=O)CCNC(=O)COc1ccc2c3c(c(=O)oc2c1)CCC3)C(=O)O (stereo not shown)
Reply: 78.8

Query: Give reported remaining activity at 50 µM value for CSCCC(NC(=O)COc1cc(C)cc2oc(=O)c3c(c12)CCC3)C(=O)NCCC(=O)O (stereo not shown)
Reply: 92.6
